read-out: Monokine induced gamma interferon (MIG), CXCL9 (gene 4283); assay: BSK_hDFCGF_MIG: BioMAP Diversity Plus: hDFCGF Assay for Monokine induced gamma interferon (MIG) Biomarker Activity (AID 2283063); settings: primary human foreskin fibroblasts; actives raise or lower the signal
The source made the active and inactive calls. How the source made its calls: active means hit-call score of the fitted dose curve at least 0.9, where 1 is the maximum; inactive means score below 0.9.
Permitted responses: label 1 for active, label 0 for inactive

COMPOUND | GROUP_LABEL
O=C(O)C(Cl)(Cl)Cl | label 0

Incoming: Assay result, entry BrCCBr — outcome?
Outgoing: label 0

Incoming: What outcome does the record of this test show for Oc1ccc(-c2ccccc2)cc1 ?
Outgoing: label 0

Incoming: GET /call?item= CCOP(=S)(OCC)SCSP(=S)(OCC)OCC returns the recorded outcome of this test.
Outgoing: label 0

Incoming: Check the results log: what was the call for CCNc1nc(NC(C)(C)C)nc(SC)n1 ?
Outgoing: label 0

Incoming: Hi, sorry to bother you, what did the test record for CC(C)(c1ccccc1)c1ccc(O)c(C(C)(C)c2ccccc2)c1 ?
Outgoing: label 1

Incoming: Hey, what did the test say about O=[N+]([O-])c1ccc2c3c(cccc13)CC2 ?
Outgoing: label 0

Incoming: What did this assay record as the result for O=Cc1cccc(Oc2ccccc2)c1 ?
Outgoing: label 0

Incoming: Returns: the outcome recorded for O=C1C2(Cl)C3(Cl)C4(Cl)C(Cl)(Cl)C5(Cl)C3(Cl)C1(Cl)C5(Cl)C24Cl (stereo not drawn) in this assay.
Outgoing: label 1

Incoming: Recorded call for C=C(C)C(=O)[O][Sn]([CH2]CCC)([CH2]CCC)[CH2]CCC ?
Outgoing: label 1

Incoming: GET /call?item= COc1cc(-c2ccc(N)c(OC)c2)ccc1N returns the recorded outcome of this test.
Outgoing: label 0

Incoming: I'd appreciate the recorded outcome for Cc1ccccc1N from this test.
Outgoing: label 0

Incoming: // return assay outcome for ClC(Cl)=C(Cl)C(Cl)=C(Cl)Cl
Outgoing: label 0

Incoming: For O=c1[nH]c(=O)[nH]c(=O)[nH]1 , which call appears in the assay record?
Outgoing: label 0

Incoming: Entry ClC1(Cl)C2(Cl)C3(Cl)C4(Cl)C(Cl)(Cl)C5(Cl)C3(Cl)C1(Cl)C5(Cl)C24Cl (stereo not drawn) : call = ?
Outgoing: label 0

Incoming: Just curious, what result did CCSC(C)CC1CC(=O)C(C(CC)=NOC/C=C/Cl)=C(O)C1 (stereo not drawn) get here?
Outgoing: label 0

Incoming: Query: recorded result category for CN(C)N=O in this test
Outgoing: label 0

----------
assay: ATG_SREBP_CIS: Attagene CIS-FACTORIAL HepG2 Assay for human Sterol Regulatory Element Binding (SREBP) (AID 2282962); settings: HepG2 Attagene cis-factorial SREBP reporter, mRNA; actives raise or lower the signal
Activity calls are given as the source filed them. Rule for the calls: active = hit-call score of the fitted dose curve at least 0.9, where 1 is the maximum; inactive = score below 0.9.
# output must be one of 1.0 for active, 0.0 for inactive

Past entries and their recorded results:
COMPOUND | GROUP_LABEL
CCN(CC)C(=O)Cl | 0.0
BrCCBr | 0.0
CC(C#N)CCC#N (stereo not given) | 0.0
NC(=S)Nc1ccccc1 | 0.0
ClC1=C(Cl)[C@]2(Cl)[C@H]3[C@H]([C@H]4C=C[C@H]3C4)[C@@]1(Cl)C2(Cl)Cl | 0.0
CC1(C)CCC(Cc2ccc(Cl)cc2)C1(O)Cn1cncn1 (stereo not given) | 1.0
CC(=O)[O][Hg][c]1ccccc1 | 0.0
CCC(=O)C(CC(C)N(C)C)(c1ccccc1)c1ccccc1 (stereo not given) | 1.0
O=C(OC1CCCCC1)c1ccccc1C(=O)OC1CCCCC1 | 0.0
CCc1ccccc1N | 0.0

Incoming: # lookup: test call for CC(C)(C)c1cc(O)ccc1O
Outgoing: 0.0

Incoming: Fill in: this test's call for CCC(C)c1cccc(C(C)CC)c1O (stereo not given) is ___
Outgoing: 0.0

----------
test: CCTE_Shafer_MEA_acute_per_burst_spike_number_mean: CCTE's Neural Acute Assay for Average Number of Spikes Per Burst, Shafer Lab (AID 2284015);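 further: hits are decreases in mean spikes per burst versus baseline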
The source made the active and inactive calls. Rule for the calls: active = hit-call score of the fitted dose curve at least 0.9, where 1 is the maximum; inactive = score below 0.9.
Outcomes you can answer with include only these: YES for active, NO for inactive

MOLECULE | GROUP_LABEL
ClC1(Cl)C2(Cl)C3(Cl)C4(Cl)C(Cl)(Cl)C5(Cl)C3(Cl)C1(Cl)C5(Cl)C24Cl (configuration not stated) | NO

Incoming: What call does the record list for CC(C)(c1ccccc1)c1ccc(O)c(C(C)(C)c2ccccc2)c1 ?
Outgoing: NO

Incoming: Could you check what this test reported for O=C(Nc1ccc2[nH]ccc2c1)c1cc2cc(F)ccc2n1Cc1cccc(F)c1 ?
Outgoing: NO

----------
target: human Retinoic Acid Receptor gamma (RARg), RARG (gene 5916); assay: ATG_RARg_TRANS: Attagene TRANS-FACTORIAL HepG2 Assay for human Retinoic Acid Receptor gamma (RARg) (AID 2283009)
Records with an inconclusive call do not appear. Activity calls are given as the source filed them. Rule for the calls: active = hit-call score of the fitted dose curve at least 0.9, where 1 is the maximum; inconclusive = response in the unintended direction; inactive = score below 0.9.
PROPERTY_LABEL: outcome

MOLECULE | PROPERTY_LABEL | MEAS_VALUE
Cc1ccc2ccccc2c1C | outcome | inactive
C[C@]12CC[C@H](O)CC1=CC[C@@H]1[C@@H]2CC[C@]2(C)C(=O)CC[C@@H]12 | outcome | inactive
BrCCBr | outcome | inactive
CCCCCCCCCl | outcome | inactive
C[C@@H](Oc1ccc(Cl)cc1Cl)C(=O)O | outcome | inactive

Give me outcome for each of these molecules, listed below.
1. O=C(c1ccccc1)C(Cl)Cl
2. O=C(O)C(F)(F)C(F)(F)C(F)(F)C(F)(F)C(F)(F)C(F)(F)C(F)(F)C(F)(F)C(F)(F)C(F)(F)F

Outgoing:
1. inactive
2. inactive

Each molecule below has a recorded value; state its outcome.
1. CC1(C)Cc2cccc(O)c2O1
2. O=[N+]([O-])c1c(Cl)c(Cl)cc(Cl)c1Cl
3. CCN1CCC2(CC1)COc1cc3c(cc12)N(C(=O)c1ccc(-c2ccc(-c4nnc(C)o4)cc2C)cc1)CC3
4. CN(C)N=O
5. CCSC(C)CC1CC(=O)C(C(CC)=NOC/C=C/Cl)=C(O)C1 (stereo not given)
6. CCOP(=S)(OCC)Oc1ccc(S(C)=O)cc1 (stereo not given)

Outgoing:
["inactive", "inactive", "inactive", "inactive", "inactive", "inactive"]

# batch size: 5; output outcome per entry
1. O=[N+]([O-])c1ccc2c3c(cccc13)CC2
2. O=C1C(Cl)=C(Cl)C(=O)c2ccccc21
3. CC(C)C1CCC(Cc2ccc(Cl)cc2)C1(O)Cn1cncn1 (stereo not given)
4. Oc1ccc(-c2ccccc2)cc1
5. C[C@]12CCC(=O)C[C@@H]1CC[C@@H]1[C@@H]2CC[C@]2(C)[C@@H](O)CC[C@@H]12

Outgoing:
["inactive", "inactive", "inactive", "inactive", "inactive"]

Report outcome for every entry below.
1. CCOP(=O)(CN(CCO)CCO)OCC
2. CC(C#N)CCC#N (stereo not given)

Outgoing:
["inactive", "inactive"]

----------
Read-out: Forkhead box O3 (FOXO3), FOXO3 (gene 2309)
Assay: LTEA_HepaRG_FOXO3: Life Technologies and Expression Analysis (LTEA) Assay for Forkhead box O3 (FOXO3) using HepaRG (AID 2283459)
Conditions: mRNA level, 48 h; actives raise or lower the signal
Protocol: LTEA_HepaRG is a cell based, multiplexed-readout assay that uses HepaRG, a human liver cell line, with measurements taken at 48 hours after chemical dosing on a 96-well plate.LTEA_HepaRG_FOXO3 is one of 102 assay component(s) measured in the LTEA HepaRG cell culture assay. It is a marker of Cell proliferation, survival, death.Data from the assay component LTEA_HepaRG_FOXO3 was analyzed into 1 endpoint. […]
Calls of active or inactive are those of the source. The calls were made as follows: active = hit-call score of the fitted dose curve at least 0.9, where 1 is the maximum; inactive = score below 0.9.
# output must be one of active, inactive

COMPOUND | GROUP_LABEL
CN(C)N=O | inactive
CC(=O)[O][Hg][c]1ccccc1 | active
O=[N+]([O-])c1ccc(O)c([N+](=O)[O-])c1 | active
NC(=O)O | inactive
ClC1(Cl)C2(Cl)C3(Cl)C4(Cl)C(Cl)(Cl)C5(Cl)C3(Cl)C1(Cl)C5(Cl)C24Cl (stereo not drawn) | inactive
Cc1ccccc1N | inactive

Incoming: For O=C(O)C(F)(F)C(F)(F)C(F)(F)C(F)(F)C(F)(F)C(F)(F)F , what call appears in the results of this test?
Outgoing: inactive

Incoming: So what was the verdict on CC(C)(C)c1cc(O)ccc1O in this test?
Outgoing: inactive

----------
assay: APR_HepG2_MicrotubuleCSK_72hr: Apredica 72-hour HepG2 Assay for Microtubule CSK Stabilty (AID 2282919); conditions: HepG2 microtubule cytoskeleton, high-content imaging, actives raise or lower the signal
Calls of active or inactive are those of the source. How the source made its calls: active means hit-call score of the fitted dose curve at least 0.9, where 1 is the maximum; inactive means score below 0.9.
PROPERTY_LABEL: AC50

// known answers, use as guide
COMPOUND | AC50
Cn1sc(Cl)cc1=O | 135 µM (active)
CCN1CCC2(CC1)COc1cc3c(cc12)N(C(=O)c1ccc(-c2ccc(-c4nnc(C)o4)cc2C)cc1)CC3 | inactive
CN(C)N=O | inactive
CC(C)(C)c1cc(O)ccc1O | inactive
O=C(O)C(Cl)(Cl)Cl | inactive
Oc1cccc2cccnc12 | inactive
CC(C)(C)CC(C)(C)c1ccc(O)cc1 | inactive
CCC(=O)C(CC(C)N(C)C)(c1ccccc1)c1ccccc1 (stereo unspecified) | 81.3 µM (active)
O=C(O)C(F)(F)C(F)(F)C(F)(F)C(F)(F)C(F)(F)C(F)(F)F | inactive
C=CC(=O)OCCCCCC(C)C | inactive

Look up AC50 for the entries below, preserving their order.
1. CCC(C)(C)c1ccc(O)c(C(C)(C)CC)c1
2. CC(=O)[O][Hg][c]1ccccc1
3. ClCC(Cl)CCl
4. O=C(Nc1ccc2[nH]ccc2c1)c1cc2cc(F)ccc2n1Cc1cccc(F)c1

Outgoing:
["inactive", "2.44 µM (active)", "inactive", "inactive"]

Hi there! I need AC50 for each item below, if you can.
1. O=C(O)C(F)(F)C(F)(F)C(F)(F)C(F)(F)C(F)(F)C(F)(F)C(F)(F)C(F)(F)C(F)(F)C(F)(F)F
2. ClC1(Cl)C2(Cl)C3(Cl)C4(Cl)C(Cl)(Cl)C5(Cl)C3(Cl)C1(Cl)C5(Cl)C24Cl (stereo unspecified)

Outgoing:
1. inactive
2. inactive
